Assay: Aqueous solubility determination (suspension in pure water, HPLC)
Details: 25 °C
metric: solubility

**Q:** What value of solubility has been reported for the following molecule? Cc1nc(Nc2ncc(C(=O)Nc3c(C)cccc3Cl)s2)cc(N2CCN(CCO)CC2)n1 [Dasatinib free base anhydrous form]
**A:** ~0.9 µg/mL

----------
Assay: Aqueous solubility determination (suspension in pure water, HPLC)
Details: pure water, 25 °C, thermodynamic from solid
metric: solubility at 2 h (µg/mL)
Give your result in µg/mL as a bare value.

**Q:** What value of solubility at 2 h has been reported for the following compound? Cc1nc(Nc2ncc(C(=O)Nc3c(C)cccc3Cl)s2)cc(N2CCN(CCO)CC2)n1 [Dasatinib free base monohydrate]
**A:** 0.36

Data origin, for the record: patent US9340536B2
